Source: the Immune Epitope Database (IEDB)

# Study system: HLA-A*11:01
# Protocol summary: IEDB peptide-MHC binding, purified MHC/direct/fluorescence; filed as Kd, often an IC50 or EC50 that approximates it; bounds were set here for any values at or beyond the usual limits of such assays
# Assay conditions: source organism: Ebola virus - Gabon (1994-1997)
pKd: −log10 of the molar value.

{"columns": ["Polymer sequence", "Study system", "pKd"],
 "data": [
  ["YFTFDLTAL", "HLA-A*11:01", "≤ 4.70"]
]}

---

# Study system: HLA-A*03:01
# Protocol summary: IEDB peptide-MHC binding, purified MHC/direct/fluorescence; filed as Kd, often an IC50 or EC50 that approximates it; bounds were set here for any values at or beyond the usual limits of such assays
# Assay conditions: source organism: Orthohantavirus hantanense
pKd: −log10 of the molar value.

{"columns": ["Polymer sequence", "pKd"],
 "data": [
  ["RLNLKTSFH", 6.39]
]}

---

# Study system: HLA-B*53:01
# Protocol summary: IEDB peptide-MHC binding, purified MHC/competitive/radioactivity; filed as Kd, often an IC50 or EC50 that approximates it; bounds were set here for any values at or beyond the usual limits of such assays
# Assay conditions: source organism: Dengue virus 3 Martinique/1243/1999

{"columns": ["Polymer sequence", "Kd [nM]"],
 "data": [
  ["QPMELKYSW", 7.76],
  ["MGITAEWLW", 6.6]
]}

---

# Study system: HLA-A*24:02
# Protocol summary: IEDB peptide-MHC binding, purified MHC/competitive/radioactivity; filed as Kd, often an IC50 or EC50 that approximates it; bounds were set here for any values at or beyond the usual limits of such assays
# Assay conditions: source organism: Mammarenavirus guanaritoense
pKd: −log10 of the molar value.

{"columns": ["Polymer sequence", "pKd"],
 "data": [
  ["INYCLDFLF", 5.90]
]}

---

# Study system: HLA-C*07:02
# Protocol summary: IEDB peptide-MHC binding, purified MHC/direct/fluorescence; filed as Kd, often an IC50 or EC50 that approximates it; bounds were set here for any values at or beyond the usual limits of such assays
# Assay conditions: source organism: Vibrio cholerae 2740-80
Readout label: Kd (µM)

{"columns": ["Polymer sequence", "Readout label", "Reported"],
 "data": [
  ["FIRWRFYLL", "Kd", 4.08]
]}

---

# Study system: HLA-A*02:16
# Protocol summary: IEDB peptide-MHC binding, purified MHC/direct/fluorescence; filed as Kd, often an IC50 or EC50 that approximates it; bounds were set here for any values at or beyond the usual limits of such assays
# Assay conditions: source organism: Oran virus
pKd: −log10 of the molar value.

{"columns": ["Polymer sequence", "pKd"],
 "data": [
  ["KPKALSEAF", "≤ 4.70"]
]}

---

Reported values of pKd for individual entries
# Study system: HLA-A*68:01
# Protocol summary: IEDB peptide-MHC binding, purified MHC/competitive/radioactivity; filed as Kd, often an IC50 or EC50 that approximates it; bounds were set here for any values at or beyond the usual limits of such assays
# Assay conditions: source organism: Vaccinia virus WR
pKd: −log10 of the molar value.

{"columns": ["Polymer sequence", "Relation symbol", "pKd"],
 "data": [
  ["KSMFWDGMDY", "=", 6.29],
  ["VALSSLVSK", "=", 5.97],
  ["MIKMFSQIDR", "=", 8.80],
  ["AFLLRHYYNK", "=", 5.27],
  ["ELRRAAIDR", "=", 7.08],
  ["ISDYSAEVER", "=", 6.64],
  ["RVRRYQIAQY", "=", 5.20],
  ["RALKAYFTAK", "=", 5.71],
  ["SSMTIREFPR", "=", 9.32],
  ["KSRRLNLFSK", "≤", 4.15],
  ["EQLSKYVEK", "=", 6.79]
]}
